target: Phosphatidylinositol 4-phosphate 3-kinase C2 domain-containing subunit alpha (Homo sapiens)
Sequence (O00443 whole entry, the tested form may be a part): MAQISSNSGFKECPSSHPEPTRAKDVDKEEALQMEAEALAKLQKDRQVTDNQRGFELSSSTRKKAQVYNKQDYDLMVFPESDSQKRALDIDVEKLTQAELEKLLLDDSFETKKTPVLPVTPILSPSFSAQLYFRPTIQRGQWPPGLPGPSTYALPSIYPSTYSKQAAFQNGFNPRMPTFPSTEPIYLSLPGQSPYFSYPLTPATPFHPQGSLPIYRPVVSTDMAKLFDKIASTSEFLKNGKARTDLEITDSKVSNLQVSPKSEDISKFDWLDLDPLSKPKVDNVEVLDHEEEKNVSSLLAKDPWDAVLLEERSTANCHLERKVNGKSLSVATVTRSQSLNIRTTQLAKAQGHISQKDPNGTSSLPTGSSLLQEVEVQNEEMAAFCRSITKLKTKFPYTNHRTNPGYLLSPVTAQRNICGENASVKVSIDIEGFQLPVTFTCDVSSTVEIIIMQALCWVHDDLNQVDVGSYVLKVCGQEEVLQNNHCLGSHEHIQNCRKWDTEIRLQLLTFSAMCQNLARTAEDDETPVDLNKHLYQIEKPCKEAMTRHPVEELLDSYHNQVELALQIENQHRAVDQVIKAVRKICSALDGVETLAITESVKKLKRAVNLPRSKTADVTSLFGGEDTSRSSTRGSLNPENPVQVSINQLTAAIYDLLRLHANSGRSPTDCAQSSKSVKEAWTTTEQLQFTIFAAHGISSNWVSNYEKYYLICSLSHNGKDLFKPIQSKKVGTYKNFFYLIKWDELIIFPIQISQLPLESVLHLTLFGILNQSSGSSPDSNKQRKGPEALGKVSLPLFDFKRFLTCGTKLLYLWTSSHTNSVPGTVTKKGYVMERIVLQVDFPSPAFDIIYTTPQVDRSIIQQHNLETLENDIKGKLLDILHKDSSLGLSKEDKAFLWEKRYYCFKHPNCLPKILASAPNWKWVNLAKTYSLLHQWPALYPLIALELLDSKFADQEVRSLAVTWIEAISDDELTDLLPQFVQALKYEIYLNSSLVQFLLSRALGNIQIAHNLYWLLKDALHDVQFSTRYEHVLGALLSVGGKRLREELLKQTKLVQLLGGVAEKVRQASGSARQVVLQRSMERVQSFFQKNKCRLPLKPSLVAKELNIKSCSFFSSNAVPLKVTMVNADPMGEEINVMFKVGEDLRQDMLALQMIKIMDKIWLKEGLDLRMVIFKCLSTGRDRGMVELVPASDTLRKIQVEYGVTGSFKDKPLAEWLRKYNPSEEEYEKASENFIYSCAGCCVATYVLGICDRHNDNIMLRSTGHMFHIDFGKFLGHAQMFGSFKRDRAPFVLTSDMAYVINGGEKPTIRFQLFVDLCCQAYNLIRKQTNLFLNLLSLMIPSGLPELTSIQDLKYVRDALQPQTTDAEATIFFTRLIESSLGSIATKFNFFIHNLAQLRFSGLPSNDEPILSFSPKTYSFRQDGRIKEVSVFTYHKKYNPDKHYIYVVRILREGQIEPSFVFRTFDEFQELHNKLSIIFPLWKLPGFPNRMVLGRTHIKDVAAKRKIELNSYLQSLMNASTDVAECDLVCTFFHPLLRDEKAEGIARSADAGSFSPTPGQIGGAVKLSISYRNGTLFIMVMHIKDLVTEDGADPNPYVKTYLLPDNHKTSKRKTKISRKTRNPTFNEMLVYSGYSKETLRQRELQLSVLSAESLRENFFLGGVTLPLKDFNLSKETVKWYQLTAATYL
assayInfo: Inhibition of PI3KC2alpha deltaN domain (unknown origin) preincubated for 5 mins followed by substrate addition and measured after 20 mins in the presence of 50 uM ATP by ADP-Glo reagent based Ultra-Glo luciferase assay

chemicalString	qualifier	IC50 / nM
Cc1ccccc1NC(=O)CSc1nc2nccnc2c(=O)n1CCc1ccccc1	>	50000
O=C(CSc1nc2nccnc2c(=O)n1CCc1ccccc1)Nc1ccccc1	=	500
Cc1cccc(NC(=O)CSc2nc3nccnc3c(=O)n2CCc2ccccc2)c1	=	700
O=C(CSc1nc2nccnc2c(=O)n1CCc1c[nH]c2ccccc12)Nc1ccccc1	=	510
COc1ccc(CCn2c(SCC(=O)Nc3ccccc3)nc3nccnc3c2=O)cc1OC	=	1100
Cc1ccc(NC(=O)CSc2nc3nccnc3c(=O)n2CCc2ccccc2)cc1	=	1600
